# EXPERIMENTAL_SYSTEM: T1, extracellular domain of human ROR1 (human, UniProt Q01973 30-406)
# T1 construct: bought protein; biotinylated in the bivalent assay format; also called Acro Cat. No. RO1-H522y
# T1 sequence (Q01973 30-406 limits assumed): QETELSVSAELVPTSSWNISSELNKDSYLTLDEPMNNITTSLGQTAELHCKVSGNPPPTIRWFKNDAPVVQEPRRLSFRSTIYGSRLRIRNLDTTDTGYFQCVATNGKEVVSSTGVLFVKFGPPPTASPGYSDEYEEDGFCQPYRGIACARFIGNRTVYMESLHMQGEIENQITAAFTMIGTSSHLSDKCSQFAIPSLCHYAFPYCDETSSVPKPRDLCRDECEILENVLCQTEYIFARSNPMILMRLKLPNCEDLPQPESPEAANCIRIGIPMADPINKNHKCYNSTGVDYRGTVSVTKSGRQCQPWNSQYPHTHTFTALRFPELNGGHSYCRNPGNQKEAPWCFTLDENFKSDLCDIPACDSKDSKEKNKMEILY
# TEST_NAME: BLI, IgG1 on biosensor, soluble ROR ectodomain
# Description: To measure binding affinity in ROR binder discovery campaigns, the VL and VH domains identified in the phage screen described above were formatted into a bivalent monospecific native human full-length IgG1 architecture and immobilized to a biosensor on an Octet (Pall ForteBio) biolayer interferometer. […]
VALUE_KIND: binding result

BINDER	VALUE_KIND	RECORDED_VALUE
I2C-9 IgG1 (antibody, V domains shown, human IgG1) VH: EVQLVESGGGLVQPGGSLRLSCAASGFTFTDYDIHWVRQAPGKGLEWVARIWPHGSYTFYADSVKGRFTISADTSKNTAYLQMNSLRAEDTAVYYCARSLTHSYGFDYWGQGTLVTVSS VL: DIQMTQSPSSLSASVGDRVTITCRASQSVSSAVAWYQQKPGKAPKLLIYSASSLYSGVPSRFSGSRSGTDFTLTISSLQPEDFATYYCQQYYTWLITFGQGTKVEIK	binding result	binds
I2C-13 IgG1 (antibody, V domains shown, human IgG1) VH: EVQLVESGGGLVQPGGSLRLSCAASGFTFSSYGIHWVRQAPGKGLEWVAYIHSGIGYTIYADSVKGRFTISADTSKNTAYLQMNSLRAEDTAVYYCARTSSTSTSVMDYWGQGTLVTVSS VL: DIQMTQSPSSLSASVGDRVTITCRASQSVSSAVAWYQQKPGKAPKLLIYSASSLYSGVPSRFSGSRSGTDFTLTISSLQPEDFATYYCQQTYWSPGTFGQGTKVEIK	binding result	binds
I2A-20 IgG1 (antibody, V domains shown, human IgG1) VH: EVQLVESGGGLVQPGGSLRLSCAASGFTFSDYGIHWVRQAPGKGLEWVAEIDSWLGYTYYADSVKGRFTISADTSKNTAYLQMNSLRAEDTAVYYCARSPYHYLYYGLDYWGQGTLVTVSS VL: DIQMTQSPSSLSASVGDRVTITCRASQSVSSAVAWYQQKPGKAPKLLIYSASSLYSGVPSRFSGSRSGTDFTLTISSLQPEDFATYYCQQLSSSLGTFGQGTKVEIK	binding result	binds
